test: Stability of analytes in rat plasma under various storage conditions; type: in vitro ADME; settings: rat plasma, storage for 2 weeks, high QC spiked concentration
Listed below: Stability Long-Term values for each entry.
State just the number; it will be interpreted in % RE.

Recorded results for 5 compounds are shown here.
{"Compound": "C[C@@H]1CC[C@]2(C(=O)O[C@@H]3O[C@H](CO)[C@@H](O)[C@H](O)[C@H]3O)CC[C@]3(C)C(=CC[C@@H]4[C@@]5(C)C[C@@H](O)[C@H](O)C(C)(C)[C@@H]5CC[C@]43C)[C@@H]2[C@]1(C)O", "Stability Long-Term (% RE)": "−6.75"}
{"Compound": "CC1CCC2(C(=O)O)CCC3(C)C(=CCC4C5(C)C(O)C(O)C(O)C(C)(C)C5CCC43C)C2C1(C)O (stereo not drawn) [V, 1β-hydroxyeuscaphic acid]", "Stability Long-Term (% RE)": 3.06}
{"Compound": "C=C1[C@H]2C3=CC[C@@H]4[C@@]5(C)C[C@@H](O)[C@@H](O)C(C)(C)[C@@H]5CC[C@@]4(C)[C@]3(C)CC[C@@]2(C(=O)O[C@@H]2O[C@H](CO)[C@@H](O)[C@H](O)[C@H]2O)CC[C@H]1C [VI, alpinoside]", "Stability Long-Term (% RE)": 5.28}
{"Compound": "CC1CCC2(C(=O)OC3OC(CO)C(O)C(O)C3O)CCC3(C)C(=CCC4C5(C)CCC(O)C(C)(C)C5CCC43C)C2C1(C)O (stereo not drawn)", "Stability Long-Term (% RE)": 2.24}
{"Compound": "C[C@@H]1CC[C@]2(C(=O)O[C@@H]3O[C@H](CO)[C@@H](O)[C@H](O)[C@H]3O)CC[C@]3(C)C(=CC[C@@H]4[C@@]5(C)CC[C@H](O[C@@H]6OC[C@H](O)[C@H](O)[C@H]6O)C(C)(C)[C@@H]5CC[C@]43C)[C@@H]2[C@]1(C)O [I, ziyuglycoside I]", "Stability Long-Term (% RE)": 2.03}

# next compound below
Consider the compound shown here: CC1=C2C3=CCC4C5(C)CCC(OC6OCC(O)C(O)C6O)C(C)(C)C5CCC4(C)C3(C)CCC2(C(=O)OC2OC(CO)C(O)C(O)C2O)CCC1C (stereo not drawn) What is its recorded Stability Long-Term?
4.31

* * *

Experiment: Pharmacokinetic study in rats after single oral administration of S. officinalis extract (UHPLC-MS/MS of plasma)
Format: in vivo, Sprague-Dawley rats
Settings: rats, after oral administration of S. officinalis extract, Figure 4
Protocol: The UHPLC-MS/MS method was successfully used in the pharmacokinetic studies of six analytes after single dose administration of S. officinalis extract in rats. […] The half-time (t1/2), maximum plasma concentration (Cmax), time to reach Cmax (Tmax), and area under concentration–time curve (AUC0→t and AUC0→∞) were calculated via non-compartmental analysis (Table 6). […] The maximum concentration (Cmax) and the time to attain it (Tmax) were observed directly from the measured data. […]
// reported time of second peak of mean plasma concentration-time curve (double-peak phenomenon) for each item listed

# example entries with known answers
{"Molecule": "C=C1[C@H]2C3=CC[C@@H]4[C@@]5(C)C[C@@H](O)[C@@H](O)C(C)(C)[C@@H]5CC[C@@]4(C)[C@]3(C)CC[C@@]2(C(=O)O[C@@H]2O[C@H](CO)[C@@H](O)[C@H](O)[C@H]2O)CC[C@H]1C [VI, alpinoside]", "Experimental result": "4 to 8 h"}
{"Molecule": "CC1=C2C3=CCC4C5(C)CCC(OC6OCC(O)C(O)C6O)C(C)(C)C5CCC4(C)C3(C)CCC2(C(=O)OC2OC(CO)C(O)C(O)C2O)CCC1C (stereo not shown)", "Experimental result": "< 1.5 h"}
{"Molecule": "CC1CCC2(C(=O)OC3OC(CO)C(O)C(O)C3O)CCC3(C)C(=CCC4C5(C)CCC(O)C(C)(C)C5CCC43C)C2C1(C)O (stereo not shown)", "Experimental result": "4 to 8 h"}

Lab note: next molecule to report on.
# get_value(readout='time of second peak of mean plasma concentration-time curve (double-peak phenomenon)', item= C[C@@H]1CC[C@]2(C(=O)O[C@@H]3O[C@H](CO)[C@@H](O)[C@H](O)[C@H]3O)CC[C@]3(C)C(=CC[C@@H]4[C@@]5(C)CC[C@H](O[C@@H]6OC[C@H](O)[C@H](O)[C@H]6O)C(C)(C)[C@@H]5CC[C@]43C)[C@@H]2[C@]1(C)O [I, ziyuglycoside I] )
4 to 8 h
